Listing of recorded Test A rating (disease control) by entry.
# System: Phakopsora pachyrhizi
# method: Test A: test suspension sprayed on soybean seedlings one day before inoculation with Phakopsora pachyrhizi spores (Asian soybean rust), visual disease rating
# Type: in vivo
# measurement-conditions: 10 ppm test suspension, 100 = 100% disease control, 0 = no control
test-readout: Test A rating (disease control) (%)

[
  {
    "structure-smiles": "CCO/C(=C\\Oc1ccc(CO)cc1)C(F)(F)F",
    "test-readout": "Test A rating (disease control)",
    "reported": 0
  },
  {
    "structure-smiles": "O=C(OCC1OCCO1)c1cnn(Cc2ccc(OCC3(C(F)(F)F)OCCO3)cc2)c1",
    "test-readout": "Test A rating (disease control)",
    "reported": 100
  },
  {
    "structure-smiles": "O=C(OCC(F)(F)F)c1cnn(Cc2ccc(OCC(O)(O)C(F)(F)F)cc2)c1",
    "test-readout": "Test A rating (disease control)",
    "reported": 87
  },
  {
    "structure-smiles": "CCO/C(=C\\Oc1cccc(Cn2cc(C(=O)OCC3CCC3)cn2)c1)C(F)(F)F",
    "test-readout": "Test A rating (disease control)",
    "reported": 100
  },
  {
    "structure-smiles": "CCNC(=O)OCc1ccc(O/C=C(\\OCC)C(F)(F)F)cc1",
    "test-readout": "Test A rating (disease control)",
    "reported": 0
  },
  {
    "structure-smiles": "CCS(=O)(=O)Cc1ccc(OCC2(C(F)(F)F)OCCO2)cc1",
    "test-readout": "Test A rating (disease control)",
    "reported": 0
  },
  {
    "structure-smiles": "N#Cc1cnn(Cc2ccc(OCC3(C(F)(F)F)OCCO3)cc2)c1",
    "test-readout": "Test A rating (disease control)",
    "reported": 89
  },
  {
    "structure-smiles": "CCO/C(=C\\Oc1ccc(Cc2ncc(C(=O)NCC(F)F)s2)cc1)C(F)(F)F",
    "test-readout": "Test A rating (disease control)",
    "reported": 13
  },
  {
    "structure-smiles": "CCCOC(=O)c1ccn(Cc2ccc(O/C=C(\\OCC)C(F)(F)F)cc2)n1",
    "test-readout": "Test A rating (disease control)",
    "reported": 100
  }
]

====

Reported Test A rating (disease control) values for a set of molecules
# Tested on: Phakopsora pachyrhizi
# method: Test A: test suspension sprayed on soybean seedlings one day before inoculation with Phakopsora pachyrhizi spores (Asian soybean rust), visual disease rating
# Type: in vivo
# measurement-conditions: 10 ppm test suspension, 100 = 100% disease control, 0 = no control
# Description: General protocol for preparing test suspensions for Tests A-C: the test compounds were first dissolved in acetone in an amount equal to 3% of the final volume and then suspended at the desired concentration (in ppm) in acetone and purified water (50/50 mix by volume) containing 250 ppm of the surfactant PEG400 (polyhydric alcohol esters). The resulting test suspensions were then used in Tests A-C. The test solution was sprayed to the point of run-off on soybean seedlings. […]

[
  {
    "structure-smiles": "O=C(NCC(F)(F)F)c1cnc(Cc2ccc(OCC3(C(F)(F)F)OCCO3)cc2)s1",
    "system": "Phakopsora pachyrhizi",
    "uom": "%",
    "Test A rating (disease control)": 0
  },
  {
    "structure-smiles": "O=C(NCC(F)(F)F)c1cnn(Cc2ccc(OCC3(C(F)(F)F)OCCO3)cc2)c1",
    "system": "Phakopsora pachyrhizi",
    "uom": "%",
    "Test A rating (disease control)": 0
  },
  {
    "structure-smiles": "CCCC(=O)N(Cc1ccc(OCC2(C(F)(F)F)OCCO2)cc1)OC",
    "system": "Phakopsora pachyrhizi",
    "uom": "%",
    "Test A rating (disease control)": 97
  },
  {
    "structure-smiles": "CCO/C(=C\\Oc1ccc(Cn2ncnc2C#N)cc1)C(F)(F)F",
    "system": "Phakopsora pachyrhizi",
    "uom": "%",
    "Test A rating (disease control)": 0
  },
  {
    "structure-smiles": "O=C(NCC(F)(F)F)c1cnc(Cc2ccc(OCC(O)(O)C(F)(F)F)cc2)o1",
    "system": "Phakopsora pachyrhizi",
    "uom": "%",
    "Test A rating (disease control)": 48
  },
  {
    "structure-smiles": "CCCOC(=O)c1cnn(Cc2ccc(OCC(O)(O)C(F)(F)F)cc2)c1",
    "system": "Phakopsora pachyrhizi",
    "uom": "%",
    "Test A rating (disease control)": 99
  },
  {
    "structure-smiles": "CN(C)C(=O)c1cnn(Cc2ccc(OCC3(C(F)(F)F)OCCO3)cc2)c1",
    "system": "Phakopsora pachyrhizi",
    "uom": "%",
    "Test A rating (disease control)": 0
  },
  {
    "structure-smiles": "O=C(OCc1ccc(Cl)c(Cl)c1)c1cnn(Cc2ccc(OCC(O)(O)C(F)(F)F)cc2)c1",
    "system": "Phakopsora pachyrhizi",
    "uom": "%",
    "Test A rating (disease control)": 0
  },
  {
    "structure-smiles": "CCO/C(=C\\Oc1ccc(Cn2cc(C(=O)OCC(C)=O)cn2)cc1)C(F)(F)F",
    "system": "Phakopsora pachyrhizi",
    "uom": "%",
    "Test A rating (disease control)": 100
  },
  {
    "structure-smiles": "O=C(OCc1ccc(F)c(F)c1)c1cnn(Cc2ccc(OCC3(C(F)(F)F)OCCO3)cc2)c1",
    "system": "Phakopsora pachyrhizi",
    "uom": "%",
    "Test A rating (disease control)": 100
  },
  {
    "structure-smiles": "CCO/C(=C\\Oc1ccc(Cn2cc(Cl)cn2)cc1)C(F)(F)F",
    "system": "Phakopsora pachyrhizi",
    "uom": "%",
    "Test A rating (disease control)": 0
  },
  {
    "structure-smiles": "CCO/C(=C\\Oc1ccc(COC(N)=O)cc1)C(F)(F)F",
    "system": "Phakopsora pachyrhizi",
    "uom": "%",
    "Test A rating (disease control)": 0
  },
  {
    "structure-smiles": "COC(=O)c1cnn(Cc2ccc(OCC(O)(O)C(F)(F)F)cc2)c1",
    "system": "Phakopsora pachyrhizi",
    "uom": "%",
    "Test A rating (disease control)": 99
  },
  {
    "structure-smiles": "O=C(OCc1ccc(Cl)c(Cl)c1)c1cnn(Cc2ccc(OCC3(C(F)(F)F)OCCO3)cc2)c1",
    "system": "Phakopsora pachyrhizi",
    "uom": "%",
    "Test A rating (disease control)": 100
  },
  {
    "structure-smiles": "CCO/C(=C\\Oc1ccc(Cn2ncc3cccnc32)cc1)C(F)(F)F",
    "system": "Phakopsora pachyrhizi",
    "uom": "%",
    "Test A rating (disease control)": 0
  },
  {
    "structure-smiles": "CN(C)S(=O)(=O)c1ccc(OCC2(C(F)(F)F)OCCO2)cc1",
    "system": "Phakopsora pachyrhizi",
    "uom": "%",
    "Test A rating (disease control)": 0
  },
  {
    "structure-smiles": "CCO/C(=C\\Oc1ccc(Cn2cc(C(=O)OC(C)C)cn2)cc1)C(F)(F)F",
    "system": "Phakopsora pachyrhizi",
    "uom": "%",
    "Test A rating (disease control)": 100
  },
  {
    "structure-smiles": "CCOCc1cnn(Cc2ccc(OCC3(C(F)(F)F)OCCO3)cc2)c1",
    "system": "Phakopsora pachyrhizi",
    "uom": "%",
    "Test A rating (disease control)": 99
  }
]

====

# Test system: Phakopsora pachyrhizi
# method: Test A: test suspension sprayed on soybean seedlings one day before inoculation with Phakopsora pachyrhizi spores (Asian soybean rust), visual disease rating
# Assay type: in vivo
# measurement-conditions: 10 ppm test suspension, 100 = 100% disease control, 0 = no control

[
  {
    "structure-smiles": "CCO/C(=C\\Oc1cccc(Cn2cc(C(=O)OCC(C)=O)cn2)c1)C(F)(F)F",
    "Test A rating (disease control) / %": 100
  },
  {
    "structure-smiles": "O=C(NCC1CC1)c1cnn(Cc2ccc(OCC(O)(O)C(F)(F)F)cc2)c1",
    "Test A rating (disease control) / %": 70
  },
  {
    "structure-smiles": "CCOC(=O)C1CCN(Cc2ccc(O/C=C(\\OCC)C(F)(F)F)cc2)CC1",
    "Test A rating (disease control) / %": 99
  },
  {
    "structure-smiles": "CCOC(=O)c1cn(Cc2ccc(O/C=C(\\OCC)C(F)(F)F)cc2)cn1",
    "Test A rating (disease control) / %": 100
  },
  {
    "structure-smiles": "CS(=O)(=O)c1ccc(OCC2(C(F)(F)F)OCCO2)cc1",
    "Test A rating (disease control) / %": 81
  },
  {
    "structure-smiles": "CON(Cc1ccc(OCC2(C(F)(F)F)OCCO2)cc1)C(=O)OC(C)(C)C",
    "Test A rating (disease control) / %": 73
  },
  {
    "structure-smiles": "CCO/C(=C\\Oc1ccc(Cn2cc(C#N)cn2)cc1)C(F)(F)F",
    "Test A rating (disease control) / %": 0
  },
  {
    "structure-smiles": "C#CCNC(=O)c1ccc(O/C=C(\\OCC)C(F)(F)F)cc1",
    "Test A rating (disease control) / %": 0
  },
  {
    "structure-smiles": "CCO/C(=C\\Oc1ccc(CS(=O)(=O)CC)cc1)C(F)(F)F",
    "Test A rating (disease control) / %": 0
  }
]

The measurements presented in this section are drawn from patent US20220030868A1.
